Hello, the source for this data is ChEMBL document CHEMBL3988442, in case you need it.

Target: Shiga toxin 2 (Escherichia coli O157:H7) (UniProt P09385+P09386)
Assay: E. coli 0.157:H7 Shiga Toxin SOP - stx2 screening assay
Assay type: functional
Design: scale not given: direction of the effect not stated beside the values
Conditions: 30 µM
MEASURED PARAMETER: Percent Effect (%)

[[record]]
compound = "CN(CC1CC1)c1ccc2ccc(C(=O)NCCN3CCOCC3)cn12"
unit_label = "%"
measured_value = -88.6

[[record]]
compound = "Cc1nc(CO[C@@H]2CN(Cc3cnn(C)c3)[C@@H]3COC[C@@H]32)cs1"
unit_label = "%"
measured_value = -3.46

[[record]]
compound = "CCn1nnc2c1C(COC)CN(C(=O)COc1ccccc1)C2 (configuration not stated)"
unit_label = "%"
measured_value = -31.2

[[record]]
compound = "CCc1cnc(C)nc1NCCN1CCCCCC1"
unit_label = "%"
measured_value = -69.6

[[record]]
compound = "Cc1cc(=O)n(CC(=O)NCC2CCCO2)c(-c2ccc(F)cc2)n1 (configuration not stated)"
unit_label = "%"
measured_value = -51.4

[[record]]
compound = "Cc1nc(O)c2nnn(C[C@H]3CCCN3C(=O)C(C)(C)C)c2n1"
unit_label = "%"
measured_value = -7.47

[[record]]
compound = "O=C1NC(c2ccccc2)=N[C@@]12CC[C@@H]1CN(Cc3ccco3)C[C@@H]12"
unit_label = "%"
measured_value = -16.5

[[record]]
compound = "NC(=O)CN1CCC(C(=O)N2CCCC(OCc3cccnc3)C2)CC1 (configuration not stated)"
unit_label = "%"
measured_value = 18

[[record]]
compound = "COc1cc(NC(=O)c2cc(C)sc2C)c(C(=O)N(C)C)cc1OC"
unit_label = "%"
measured_value = -44.2

[[record]]
compound = "Cc1n[nH]c(C2CN(C(=O)c3ccco3)CCO2)n1 (configuration not stated)"
unit_label = "%"
measured_value = 5.26

[[record]]
compound = "COCCOc1ccc(NC(=O)N(C)Cc2ccsc2)cn1"
unit_label = "%"
measured_value = -8.11

[[record]]
compound = "CC(c1ccccc1)n1c(SCC(=O)O)nnc1-c1ccccc1Cl (configuration not stated)"
unit_label = "%"
measured_value = 2.71

[[record]]
compound = "O=C(N1CCCC1)N1CCO[C@H]2[C@@H](Oc3ccccn3)CC[C@@H]21"
unit_label = "%"
measured_value = -9.25

[[record]]
compound = "CCNC(=O)[C@@H]1C[C@@H](NC(=O)Cc2ccncc2)CN1Cc1ccsc1"
unit_label = "%"
measured_value = -0.12

[[record]]
compound = "CC(=O)Nc1nc(C(=O)Nc2ccc(F)cc2)cs1"
unit_label = "%"
measured_value = -5.87

[[record]]
compound = "Cc1ncc(CNC(=O)Nc2cc(C(F)(F)F)c[nH]c2=O)s1"
unit_label = "%"
measured_value = -19.6

[[record]]
compound = "Cc1cnn(CC2CCCCN2CC(=O)Nc2c(C)n[nH]c2C)c1 (configuration not stated)"
unit_label = "%"
measured_value = -12.9

[[record]]
compound = "CCN(CC1CCCO1)C(=O)Nc1ccc(F)cc1OC (configuration not stated)"
unit_label = "%"
measured_value = -7.53

[[record]]
compound = "Cc1n[nH]c(C)c1C1CCCN1C(=O)NCC(=O)NC(C)(C)C (configuration not stated)"
unit_label = "%"
measured_value = -24.4

[[record]]
compound = "O=C1NC2(CCN(Cc3cccnc3)CC2)CC1c1ccncc1 (configuration not stated)"
unit_label = "%"
measured_value = -19.6

[[record]]
compound = "Cc1noc([C@H]2COC[C@H]3CN(C(=O)Cc4ccc(F)cc4)C[C@H]32)n1"
unit_label = "%"
measured_value = 23.4

[[record]]
compound = "COc1ccccc1OCc1cc(C(=O)N2CCN[C@H](C)C2)n[nH]1"
unit_label = "%"
measured_value = -31.9

[[record]]
compound = "CC(=O)N1CCCC1c1csc(Nc2cnccn2)n1 (configuration not stated)"
unit_label = "%"
measured_value = 29.9

[[record]]
compound = "COCC1c2c(cnn2CC2CC2)CCN1Cc1ccc(OC)cc1 (configuration not stated)"
unit_label = "%"
measured_value = 4.64

[[record]]
compound = "NC(=O)CN1CCC(NC(=O)Nc2nccs2)CC1"
unit_label = "%"
measured_value = -29.4

[[record]]
compound = "CC(C)CCN1CCNC(=O)C1CC(=O)N1CCc2sccc2C1 (configuration not stated)"
unit_label = "%"
measured_value = -7.76

[[record]]
compound = "Cc1csc(N2CCN(C(=O)CCNc3ncccn3)CC2)n1"
unit_label = "%"
measured_value = 21.6

[[record]]
compound = "Cc1noc(C)c1CN1CC2(CCN(C(=O)c3c[nH]cn3)C2)CC1=O (configuration not stated)"
unit_label = "%"
measured_value = -14.1

[[record]]
compound = "O=C(C1COCCO1)N1CCN(Cc2ccc3c(c2)CCO3)CC1 (configuration not stated)"
unit_label = "%"
measured_value = 8.81

[[record]]
compound = "Cc1ccc(N2CCC3(CCCN(C(=O)c4cccnc4)C3)C2)nn1 (configuration not stated)"
unit_label = "%"
measured_value = -11

[[record]]
compound = "NC(=O)NCC(=O)N1C[C@H]2CC[C@@H]1CN(C1Cc3ccccc3C1)C2"
unit_label = "%"
measured_value = -7

[[record]]
compound = "Cc1nc(N)sc1C(=O)N1CCCC(c2nccn2CCCN(C)C)C1 (configuration not stated)"
unit_label = "%"
measured_value = 12.2

[[record]]
compound = "CC(C)(C)c1nnc(CN2CCOC(Cn3cccn3)C2)o1 (configuration not stated)"
unit_label = "%"
measured_value = -2.05

[[record]]
compound = "Clc1ccccc1C1(c2ccnc(-c3ncccn3)n2)CCNCC1"
unit_label = "%"
measured_value = -34.1

[[record]]
compound = "NC(=O)c1csc(C(=O)N2CCCC(n3ccnc3)C2)c1 (configuration not stated)"
unit_label = "%"
measured_value = 0.351

[[record]]
compound = "O=C(NCc1ccc(-c2ccn[nH]2)cc1)N1CCC(N2CCCC2)C1 (configuration not stated)"
unit_label = "%"
measured_value = 9.65

[[record]]
compound = "Cc1nc(CCNC(=O)NC2CCN(c3ncccn3)CC2)cs1"
unit_label = "%"
measured_value = -10

[[record]]
compound = "Cc1ccc2cnn(CCC(=O)NCc3c(C)nn(C)c3C)c2c1"
unit_label = "%"
measured_value = -18.4

[[record]]
compound = "Clc1ccc2oc(C3CCN(Cc4cccnc4)CC3)nc2c1"
unit_label = "%"
measured_value = -46.7

[[record]]
compound = "CCOc1ccccc1OC1CCN(C(=O)c2cc[nH]n2)CC1"
unit_label = "%"
measured_value = 39.1

[[record]]
compound = "O=C(CCc1ccsc1)NCC1CCN(c2ccccc2)C1 (configuration not stated)"
unit_label = "%"
measured_value = -12.3

[[record]]
compound = "Cn1cc(CN2CC[C@@H]3[C@@H](CCC(=O)N3CCC3=CCCCC3)C2)cn1"
unit_label = "%"
measured_value = -13

[[record]]
compound = "CC(C)Cc1noc(CN2CCCC(Cn3cncn3)C2)n1 (configuration not stated)"
unit_label = "%"
measured_value = -14.7

[[record]]
compound = "FC(F)(F)C1CCc2nnc(CNCc3ccsc3)n2C1 (configuration not stated)"
unit_label = "%"
measured_value = 3.92

[[record]]
compound = "O=C(c1cccnc1)N1CCCC(c2cc(C(F)F)n3ncnc3n2)C1 (configuration not stated)"
unit_label = "%"
measured_value = 8.99

[[record]]
compound = "Cc1cnn(C2CCCN(C(=O)c3ccc(N(C)C)nn3)C2)c1 (configuration not stated)"
unit_label = "%"
measured_value = -0.265

[[record]]
compound = "COCc1cc(O)nc(C2CCCN(Cc3cc(OC)ccc3F)C2)n1 (configuration not stated)"
unit_label = "%"
measured_value = 17.7


---

Target: Ubiquitin-activating enzyme e1, putative (Leishmania donovani (strain BPK282A1)) (UniProt E9BSI1)
Sequence (E9BSI1 as listed by the source): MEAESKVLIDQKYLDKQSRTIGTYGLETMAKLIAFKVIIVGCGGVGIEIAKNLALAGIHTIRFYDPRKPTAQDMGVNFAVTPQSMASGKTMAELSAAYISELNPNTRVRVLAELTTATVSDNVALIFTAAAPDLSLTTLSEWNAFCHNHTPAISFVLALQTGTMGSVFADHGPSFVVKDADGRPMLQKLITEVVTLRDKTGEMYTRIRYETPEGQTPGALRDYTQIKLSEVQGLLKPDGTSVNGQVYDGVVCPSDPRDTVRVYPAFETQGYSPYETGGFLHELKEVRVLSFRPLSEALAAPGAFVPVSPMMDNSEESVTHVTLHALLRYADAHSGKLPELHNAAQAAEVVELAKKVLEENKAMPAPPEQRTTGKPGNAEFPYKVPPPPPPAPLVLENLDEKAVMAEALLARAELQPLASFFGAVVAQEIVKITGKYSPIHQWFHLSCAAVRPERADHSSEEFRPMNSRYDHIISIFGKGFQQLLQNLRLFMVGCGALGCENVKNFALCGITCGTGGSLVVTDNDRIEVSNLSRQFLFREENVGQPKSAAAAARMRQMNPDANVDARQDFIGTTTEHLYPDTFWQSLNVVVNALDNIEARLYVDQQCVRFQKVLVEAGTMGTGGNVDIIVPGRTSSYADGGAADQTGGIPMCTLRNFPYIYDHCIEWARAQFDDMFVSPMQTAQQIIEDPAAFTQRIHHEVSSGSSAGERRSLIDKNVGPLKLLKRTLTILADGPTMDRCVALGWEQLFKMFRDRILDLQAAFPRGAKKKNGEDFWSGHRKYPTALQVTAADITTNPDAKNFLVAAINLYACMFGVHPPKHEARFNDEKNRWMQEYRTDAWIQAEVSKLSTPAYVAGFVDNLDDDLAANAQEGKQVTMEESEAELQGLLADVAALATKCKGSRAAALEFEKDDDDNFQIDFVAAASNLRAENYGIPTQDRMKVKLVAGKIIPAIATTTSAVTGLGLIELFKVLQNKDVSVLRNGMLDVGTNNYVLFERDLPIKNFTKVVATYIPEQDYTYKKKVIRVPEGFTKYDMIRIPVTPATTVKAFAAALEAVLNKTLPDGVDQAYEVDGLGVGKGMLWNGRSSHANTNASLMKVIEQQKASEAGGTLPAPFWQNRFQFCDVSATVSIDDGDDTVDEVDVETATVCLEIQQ
Assay: Leishmania donovani Ubiquitin Activating Enzyme (LdE1)
Assay type: functional
Set-up: scale not given: direction of the effect not stated beside the values
Details: 30 µM
Results with a measured potency or affinity are listed apart.
MEASURED PARAMETER: Percent Effect (%)

[[record]]
compound = "O=C1N(c2cncnc2)CCC12CCCN(Cc1ccccn1)C2 (centres undefined)"
measured_parameter = "Percent Effect"
measured_value = 5.2

[[record]]
compound = "O=C(Nc1cccnc1)[C@H]1COC[C@H]2CN(C3CCCC3)C[C@H]21"
measured_parameter = "Percent Effect"
measured_value = 8.11

[[record]]
compound = "O=C1CSC(c2ccsc2)c2c(n(C3CCOCC3)[nH]c2=O)N1 (centres undefined)"
measured_parameter = "Percent Effect"
measured_value = 14.7

[[record]]
compound = "O=C(c1ccnnc1)N1C[C@@H]2OCCN(CCN3CCCC3)[C@@H]2C1"
measured_parameter = "Percent Effect"
measured_value = 0

[[record]]
compound = "COCCNC(=O)c1cn(C(C)(C)C)c2ncccc12"
measured_parameter = "Percent Effect"
measured_value = 6.67

[[record]]
compound = "CCN1CCC(c2cncc(N(C)C)n2)CC1"
measured_parameter = "Percent Effect"
measured_value = 13.3

[[record]]
compound = "COc1ccc(C(=O)C2CCCN(Cc3ccc(C)o3)C2)c(OC)c1 (centres undefined)"
measured_parameter = "Percent Effect"
measured_value = -5.41

[[record]]
compound = "Cc1cccc(CN2CC[C@@H]3[C@@H]2CCN3C(=O)c2ccno2)n1"
measured_parameter = "Percent Effect"
measured_value = -2.7

[[record]]
compound = "CCc1nc(CC(=O)N2CCCC2CN2CCCC2)cs1 (centres undefined)"
measured_parameter = "Percent Effect"
measured_value = 0

[[record]]
compound = "CSc1nccc(N2CCN(C)C3(CCNC(=O)CC3)C2)n1 (centres undefined)"
measured_parameter = "Percent Effect"
measured_value = 8

[[record]]
compound = "CN(C)c1ncc2c(n1)C1(CCN(Cc3ccccc3)C1)COC2 (centres undefined)"
measured_parameter = "Percent Effect"
measured_value = -5.48

[[record]]
compound = "CC(C)c1nccc([C@H]2C[C@@H]3CCN(Cc4ccco4)C[C@H]3O2)n1"
measured_parameter = "Percent Effect"
measured_value = -3.9

[[record]]
compound = "O=C(NC[C@]12COC[C@H]1CN(Cc1cccnc1)C2)c1ccno1"
measured_parameter = "Percent Effect"
measured_value = 13.3

[[record]]
compound = "CN1CCCC(c2n[nH]c3ncccc23)C1 (centres undefined)"
measured_parameter = "Percent Effect"
measured_value = -1.35

[[record]]
compound = "NCC1(c2cccc(Br)c2)CCOCC1"
measured_parameter = "Percent Effect"
measured_value = 2.7

[[record]]
compound = "COc1cc(OC)c(C2SCC(=O)Nc3n[nH]cc32)cc1OC (centres undefined)"
measured_parameter = "Percent Effect"
measured_value = 5.26

[[record]]
compound = "CCN(Cc1cccnc1)CC1CCCO1 (centres undefined)"
measured_parameter = "Percent Effect"
measured_value = 0

[[record]]
compound = "O=C1[C@H]2CN(CC3CC3)C[C@H]2CN1c1ccsc1"
measured_parameter = "Percent Effect"
measured_value = -2.7

[[record]]
compound = "Cc1noc(C)c1CN1CC[C@H]2OCC[C@@]2(C(=O)N2CCCO2)C1"
measured_parameter = "Percent Effect"
measured_value = 6.49

[[record]]
compound = "CC(C)N1CCc2c(CN(C)Cc3ccco3)cncc2C1"
measured_parameter = "Percent Effect"
measured_value = 0

[[record]]
compound = "Cc1cc(CN2CC[C@H]3C[C@H](c4nccs4)O[C@@H]3C2)no1"
measured_parameter = "Percent Effect"
measured_value = -2.7

[[record]]
compound = "O=C1[C@H]2CN(Cc3ccoc3)C[C@H]2CN1Cc1ccncc1"
measured_parameter = "Percent Effect"
measured_value = 7.79

[[record]]
compound = "CN(Cc1cncnc1)[C@H]1CN(CC2CC2)[C@@H]2CCCO[C@@H]21"
measured_parameter = "Percent Effect"
measured_value = 10.7

[[record]]
compound = "CNC(=O)[C@@]12CCCN(c3ncccn3)[C@@H]1CN(C)C2"
measured_parameter = "Percent Effect"
measured_value = 5.2

